The measurements presented in this section are drawn from patent US20220144847A1.

target_or_test_system: RET-V804M (Homo sapiens, UniProt P07949, V804M)
Sequence (P07949 29-1114 V804M): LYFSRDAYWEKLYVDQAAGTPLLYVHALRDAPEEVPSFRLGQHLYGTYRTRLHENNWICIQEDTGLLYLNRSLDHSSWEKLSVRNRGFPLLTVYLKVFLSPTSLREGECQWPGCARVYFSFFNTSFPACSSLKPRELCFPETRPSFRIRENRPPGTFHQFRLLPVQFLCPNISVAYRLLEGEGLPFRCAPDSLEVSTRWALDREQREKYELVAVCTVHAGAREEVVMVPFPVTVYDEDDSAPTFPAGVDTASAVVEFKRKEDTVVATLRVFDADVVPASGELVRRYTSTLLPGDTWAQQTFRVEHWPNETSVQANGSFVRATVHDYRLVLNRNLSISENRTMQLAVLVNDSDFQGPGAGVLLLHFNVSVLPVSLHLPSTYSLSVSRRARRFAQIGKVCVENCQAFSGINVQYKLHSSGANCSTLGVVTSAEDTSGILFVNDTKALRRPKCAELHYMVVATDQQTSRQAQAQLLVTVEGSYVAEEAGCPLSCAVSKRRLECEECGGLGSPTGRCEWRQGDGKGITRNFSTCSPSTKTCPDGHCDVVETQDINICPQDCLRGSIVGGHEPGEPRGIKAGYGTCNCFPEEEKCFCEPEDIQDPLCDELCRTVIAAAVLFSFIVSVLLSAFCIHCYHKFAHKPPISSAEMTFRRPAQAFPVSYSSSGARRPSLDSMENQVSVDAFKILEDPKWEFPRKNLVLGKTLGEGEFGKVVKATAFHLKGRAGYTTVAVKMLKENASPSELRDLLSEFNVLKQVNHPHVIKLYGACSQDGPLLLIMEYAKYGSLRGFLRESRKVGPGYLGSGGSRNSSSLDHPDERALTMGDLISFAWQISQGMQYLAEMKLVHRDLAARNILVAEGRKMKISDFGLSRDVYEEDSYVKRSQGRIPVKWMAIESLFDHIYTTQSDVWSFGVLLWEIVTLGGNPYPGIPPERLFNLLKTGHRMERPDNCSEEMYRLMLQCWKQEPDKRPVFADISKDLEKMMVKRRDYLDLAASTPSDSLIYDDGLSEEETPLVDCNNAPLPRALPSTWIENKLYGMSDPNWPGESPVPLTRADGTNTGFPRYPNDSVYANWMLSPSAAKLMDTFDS
assay_name: RET inhibition experiment (HTRF KinEASE-TK kit), mutant RET-V804M
Assay type: biochemical
assay_conditions: 10 nM (Table 2); read-out: Inhibition rate on RET-V804M
Given measured inhibition at 0.01 µM, output fulfilled if it is greater than or equal to 60% and not fulfilled if not.

For orientation, consider the following solved cases.
smiles_input: COc1ccc(-c2ccc(CN3C4CC3CN(c3ccc(-c5nc(C)cc(Nc6cc(C)[nH]n6)n5)cn3)C4)cn2)cn1
target_or_test_system: RET-V804M (Homo sapiens, UniProt P07949, V804M)
class_label: not fulfilled
--
smiles_input: Cc1cc(Nc2cc(C)[nH]n2)nc(-c2ccc(N3CCC(Oc4cncc(F)c4)CC3)nc2)n1
target_or_test_system: RET-V804M (Homo sapiens, UniProt P07949, V804M)
class_label: not fulfilled
--
smiles_input: Cc1cc(Nc2cc(C)[nH]n2)nc(-c2ccc(N3CC4CC(C3)N4Cc3ccc(-c4ccn[nH]4)nc3)nc2)n1
target_or_test_system: RET-V804M (Homo sapiens, UniProt P07949, V804M)
class_label: fulfilled
--
smiles_input: Cc1cc(Nc2cc(C)[nH]n2)nc(-c2ccc(N3CC4CC(C3)N4Cc3ccc(-c4cnn(C(C)C)c4)nc3)nc2)n1
target_or_test_system: RET-V804M (Homo sapiens, UniProt P07949, V804M)
class_label: fulfilled
--
smiles_input: Cc1cc(Nc2cc(C)[nH]n2)nc(-c2ccc(N3CC4CC(C3)N4Cc3ccc(-c4ccc(F)[nH]4)nc3)nc2)n1
target_or_test_system: RET-V804M (Homo sapiens, UniProt P07949, V804M)
class_label: fulfilled
--
smiles_input: Cc1cc(Nc2cc(C)[nH]n2)nc(-c2ccc(N3CC4CC(C3)N4Cc3ccc(-n4cccn4)cc3)nc2)n1
target_or_test_system: RET-V804M (Homo sapiens, UniProt P07949, V804M)
class_label: fulfilled

Here's the next entry for you.
// inclusive: inhibition at 0.01 µM at least 60%? input: Cc1cc(Nc2cc(C)[nH]n2)nc(-c2ccc(N3CC4CC(C3)N4Cc3ccc(-n4ccc(CF)n4)nc3)nc2)n1
fulfilled
